# Target under test: UniProt:P08170
# Assay overview: Inhibition of soybean lipoxygenase-1 assessed as inhibition constant for enzyme-inhibitor complex by Lineweaver-Burk plot
Parameter measured: pKi
One number for each entry, as −log10 of the molar value.

Look up pKi: CCCCCCCc1ccc(CCc2cc(O)cc(O)c2C(=O)O)cc1
5.01

====

# Target under test: Seed linoleate 13S-lipoxygenase-1 (Glycine max, UniProt P08170)
# Sequence (P08170 whole entry): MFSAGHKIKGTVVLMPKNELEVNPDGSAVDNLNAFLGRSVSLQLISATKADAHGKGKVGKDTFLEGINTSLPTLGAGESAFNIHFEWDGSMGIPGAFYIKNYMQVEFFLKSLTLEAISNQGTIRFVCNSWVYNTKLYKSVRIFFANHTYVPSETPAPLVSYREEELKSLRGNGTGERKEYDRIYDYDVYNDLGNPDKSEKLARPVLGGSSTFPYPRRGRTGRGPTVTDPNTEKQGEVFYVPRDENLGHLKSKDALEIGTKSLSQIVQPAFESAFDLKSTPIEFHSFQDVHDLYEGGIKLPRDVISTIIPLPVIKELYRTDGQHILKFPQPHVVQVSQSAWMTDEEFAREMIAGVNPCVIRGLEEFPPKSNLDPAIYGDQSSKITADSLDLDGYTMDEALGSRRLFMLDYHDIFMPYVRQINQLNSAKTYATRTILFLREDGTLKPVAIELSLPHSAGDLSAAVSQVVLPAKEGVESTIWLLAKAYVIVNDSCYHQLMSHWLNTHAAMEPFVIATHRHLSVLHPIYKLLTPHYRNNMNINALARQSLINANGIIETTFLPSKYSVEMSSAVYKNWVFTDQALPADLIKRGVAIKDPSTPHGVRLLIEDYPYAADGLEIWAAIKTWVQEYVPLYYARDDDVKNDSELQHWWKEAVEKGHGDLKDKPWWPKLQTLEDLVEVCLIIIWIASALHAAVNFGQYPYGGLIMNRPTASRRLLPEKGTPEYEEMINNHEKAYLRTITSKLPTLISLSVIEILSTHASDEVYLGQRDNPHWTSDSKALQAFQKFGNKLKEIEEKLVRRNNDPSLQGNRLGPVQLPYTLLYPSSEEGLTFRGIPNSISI
# Assay overview: Inhibition of soybean lipoxygenase-1 assessed as inhibition constant for enzyme-substrate-inhibitor complex by Lineweaver-Burk plot
Parameter measured: pKi
Numbers only, as −log10 of the molar value.

Look up pKi: CCCCCCCc1ccc(CCc2cc(O)cc(O)c2C(=O)O)cc1
4.80

Entry source: ChEMBL document CHEMBL2203161
